- protocol details: Inhibition of [3H]Leu-enkephalin binding to Dipeptidyl aminopeptidase (DAP)
- Parameters: species or system Rattus norvegicus
pIC50: −log10 of the molar value.
measure: pIC50

compound: CC(C(=O)O)C(=O)NC(Cc1ccccc1)C(=O)NO (stereo in doubt; 8)
reported value: 5.57
//
compound: O=C(O)CNC(=O)C(Cc1ccccc1)C(=O)NO (racemic)
reported value: 4.46
//
compound: O=C(O)CC(=O)N[C@@H](CC(=O)NO)Cc1ccccc1
reported value: 6.85
//
compound: CC(C(=O)O)C(=O)NC(CC(=O)NO)Cc1ccccc1 (stereo unspecified)
reported value: 7.76
//
compound: C[C@H](NC(=O)[C@@H](CC(=O)NO)Cc1ccccc1)C(=O)O (racemic)
reported value: 9.05
//
compound: O=C(O)CC(=O)N[C@H](CC(=O)NO)Cc1ccccc1
reported value: 6.35
//
compound: O=C(O)CC(=O)N[C@@H](Cc1ccccc1)C(=O)NO
reported value: 5.70
//
compound: CC(C(=O)O)C(=O)NC(Cc1ccccc1)C(=O)NO (stereo in doubt; 9)
reported value: 7.15
//
compound: O=C(CC(Cc1ccccc1)NC(=O)C(Cc1ccccc1)C(=O)O)NO (stereo unspecified)
reported value: 7.49
//
compound: O=C(O)CNC(=O)C(CC(=O)NO)Cc1ccccc1 (racemic)
reported value: 7.68

---

- protocol details: Inhibition of [3H]Leu-enkephalin binding to aminopeptidase
- Set-up: species or system Sus scrofa
pIC50: −log10 of the molar value.

compound: O=C(CC(Cc1ccccc1)NC(=O)C(Cc1ccccc1)C(=O)O)NO (stereo not drawn)
inequality sign: =
pIC50: 5.21
//
compound: O=C(O)CC(=O)N[C@H](CC(=O)NO)Cc1ccccc1
inequality sign: =
pIC50: 3.82
//
compound: O=C(O)CNC(=O)C(CC(=O)NO)Cc1ccccc1 (racemic)
inequality sign: =
pIC50: 5.70
//
compound: CN(O)C(=O)C[C@@H](Cc1ccccc1)NC(=O)CC(=O)O
inequality sign: <
pIC50: 4.00
//
compound: CC(C(=O)O)C(=O)NC(Cc1ccccc1)C(=O)NO (stereo in doubt; 8)
inequality sign: =
pIC50: 5.21
//
compound: O=C(CC(Cc1ccccc1)C(=O)NC(Cc1ccccc1)C(=O)O)NO (racemic)
inequality sign: =
pIC50: 6.89
//
compound: O=C(O)CC(=O)N[C@@H](Cc1ccccc1)C(=O)NO
inequality sign: =
pIC50: 3.40
//
compound: O=C(O)CNC(=O)C(Cc1ccccc1)C(=O)NO (racemic)
inequality sign: =
pIC50: 4.00
//
compound: C[C@H](NC(=O)[C@@H](CC(=O)NO)Cc1ccccc1)C(=O)O (racemic)
inequality sign: =
pIC50: 6.42
//
compound: O=C(O)CC(=O)N[C@@H](CC(=O)NO)Cc1ccccc1
inequality sign: =
pIC50: 5.70
//
compound: CC(C(=O)O)C(=O)NC(CC(=O)NO)Cc1ccccc1 (stereo not drawn)
inequality sign: =
pIC50: 5.07
